Value source: PubChem BioAssay AID2060895

# Tested on: PDC 899932-113-R3-J6 complex spheroid viability
# test_description: Anticancer human tumor 899932-113-R3-J6-PDC patient-derived melanoma cell line growth inhibition [RAS]; active means viability on the fitted dose curve at most 10% of control; inactive means the rest
# reported_conditions: second compound 0.3 µM; first compound 10 µM
Parameter call: string, one of class 1 = active, class 0 = inactive

CC(=O)OC12COC1CC(O)C1(C)C(=O)C(O)C3=C(C)C(OC(=O)C(O)C(NC(=O)OC(C)(C)C)c4ccccc4)CC(O)(C(OC(=O)c4ccccc4)C21)C3(C)C (centres undefined) + CCn1c(-c2cc(N3CCN(C)CC3)cnc2C(C)OC)c2c3cc(ccc31)-c1csc(n1)CC(NC(=O)C1CC1C)C(=O)N1CCCC(N1)C(=O)OCC(C)(C)C2; class 1
CC1(O)CCCC1n1c(=O)c(C(F)F)cc2cnc(NC3CCN(S(C)(=O)=O)CC3)nc21 (centres undefined) + CCn1c(-c2cccnc2C(C)OC)c2c3cc(ccc31)N1CCOC(CC(NC(=O)C(C(C)C)N(C)C(=O)C3(F)CCN(C(=O)C#CC(C)(C)N(C)C)CC3)C(=O)N3CCCC(N3)C(=O)OCC(C)(C)C2)C1; class 0
C[C@@H](NC(=O)c1ncnc(N)c1Cl)c1ncc(C(=O)Nc2cc(C(F)(F)F)c(Cl)cn2)s1 + CCn1c(-c2cccnc2C(C)OC)c2c3cc(ccc31)N1CCOC(CC(NC(=O)C(C(C)C)N(C)C(=O)C3(F)CCN(C(=O)C#CC(C)(C)N(C)C)CC3)C(=O)N3CCCC(N3)C(=O)OCC(C)(C)C2)C1; class 0

Note: attention shifts to another entry.
query: Per the assay record, what outcome was assigned to Cc1nc(N2CCC3(CC2)COC(C)C3N)c(CO)nc1Sc1ccnc(N)c1Cl (centres undefined) + CCn1c(-c2cc(N3CCN(C)CC3)cnc2C(C)OC)c2c3cc(ccc31)-c1csc(n1)CC(NC(=O)C1CC1C)C(=O)N1CCCC(N1)C(=O)OCC(C)(C)C2 ?
result: class 1

###

# Tested on: PDC 899932-113-R3-J6 complex spheroid viability
# test_description: Anticancer human tumor 899932-113-R3-J6-PDC cell line growth inhibition [RAS];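 further: spheroids exposed to agents for seven days before readout; 100% = DMSO vehicle control wells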
# reported_conditions: second compound 0.1 µM; first compound 0.1 µM; stronger effect = lower value
measured_parameter: viability, T/C (%)
# number only, unit % dropped from output

C=CC(=O)Nc1cc(Nc2nccc(-c3cn(C)c4ccccc34)n2)c(OC)cc1N(C)CCN(C)C + C=CC(=O)N1CCN(c2nc(OCC3CCCN3C)nc3c(F)c(-c4nc(N)cc(C)c4C(F)(F)F)c(Cl)cc23)C(C)C1; 97.7
CC(Nc1ccc2c(c1)OCCn1cc(N3C(=O)OCC3C(F)F)nc1-2)C(N)=O (configuration not stated) + C=CC(=O)N1CCN(c2nc(OCC3CCCN3C)nc3c(F)c(-c4nc(N)cc(C)c4C(F)(F)F)c(Cl)cc23)C(C)C1; 77.2
CCC(CC)c1cc(NC2CCC(N)C2)n2nccc2n1 (configuration not stated) + C#Cc1c(F)ccc2cc(O)cc(-c3ncc4c(N5CC6CCC(C5)N6)nc(OCC56CCCN5CC(F)C6)nc4c3F)c12; 104
CCN1CCN(Cc2ccc(Nc3ncc(F)c(-c4cc(F)c5nc(C)n(C(C)C)c5c4)n3)nc2)CC1 + C#Cc1c(F)ccc2cc(O)cc(-c3ncc4c(N5CC6CCC(C5)N6)nc(OCC56CCCN5CC(F)C6)nc4c3F)c12; 87
C=CC(=O)Nc1cc(Nc2nccc(-c3cn(C)c4ccccc34)n2)c(OC)cc1N(C)CCN(C)C + C#Cc1c(F)ccc2cc(O)cc(-c3ncc4c(N5CC6CCC(C5)N6)nc(OCC56CCCN5CC(F)C6)nc4c3F)c12; 100
CC(C)n1nc(-c2ccc3oc(N)nc3c2)c2c(N)ncnc21 + C#Cc1c(F)ccc2cc(O)cc(-c3ncc4c(N5CC6CCC(C5)N6)nc(OCC56CCCN5CC(F)C6)nc4c3F)c12; 52.5

query: Requested read-out: viability, T/C. Entry: Nc1ccn(C2OC(CO)C(O)C2(F)F)c(=O)n1 (configuration not stated) + C=CC(=O)N1CCN(c2nc(OCC3CCCN3C)nc3c(F)c(-c4nc(N)cc(C)c4C(F)(F)F)c(Cl)cc23)C(C)C1
result: 23.8

query: Requested read-out: viability, T/C. Entry: C=CC(=O)N1CCN(c2nc(OCC3CCCN3C)nc3c(F)c(-c4nc(N)cc(C)c4C(F)(F)F)c(Cl)cc23)C(C)C1 (configuration not stated) + C#Cc1c(F)ccc2cc(O)cc(-c3ncc4c(N5CC6CCC(C5)N6)nc(OCC56CCCN5CC(F)C6)nc4c3F)c12
result: 117

query: Requested read-out: viability, T/C. Entry: NC1c2ccccc2OC12CCN(c1cnc3c(N4CCCc5ncccc54)n[nH]c3n1)CC2 (configuration not stated) + C=CC(=O)N1CCN(c2nc(OCC3CCCN3C)nc3c(F)c(-c4nc(N)cc(C)c4C(F)(F)F)c(Cl)cc23)C(C)C1
result: 106

query: Requested read-out: viability, T/C. Entry: Cc1nc(N2CCC3(CC2)COC(C)C3N)c(CO)nc1Sc1ccnc(N)c1Cl (configuration not stated) + C#Cc1c(F)ccc2cc(O)cc(-c3ncc4c(N5CC6CCC(C5)N6)nc(OCC56CCCN5CC(F)C6)nc4c3F)c12
result: 99.1

query: Requested read-out: viability, T/C. Entry: NC1c2ccccc2OC12CCN(c1cnc3c(N4CCCc5ncccc54)n[nH]c3n1)CC2 (configuration not stated) + C#Cc1c(F)ccc2cc(O)cc(-c3ncc4c(N5CC6CCC(C5)N6)nc(OCC56CCCN5CC(F)C6)nc4c3F)c12
result: 115

query: Requested read-out: viability, T/C. Entry: CC1(O)CCCC1n1c(=O)c(C(F)F)cc2cnc(NC3CCN(S(C)(=O)=O)CC3)nc21 (configuration not stated) + C=CC(=O)N1CCN(c2nc(OCC3CCCN3C)nc3c(F)c(-c4nc(N)cc(C)c4C(F)(F)F)c(Cl)cc23)C(C)C1
result: 80.4
